Molecular target: human mAChR M1 (Homo sapiens, UniProt P11229)
Sequence (P11229 whole entry): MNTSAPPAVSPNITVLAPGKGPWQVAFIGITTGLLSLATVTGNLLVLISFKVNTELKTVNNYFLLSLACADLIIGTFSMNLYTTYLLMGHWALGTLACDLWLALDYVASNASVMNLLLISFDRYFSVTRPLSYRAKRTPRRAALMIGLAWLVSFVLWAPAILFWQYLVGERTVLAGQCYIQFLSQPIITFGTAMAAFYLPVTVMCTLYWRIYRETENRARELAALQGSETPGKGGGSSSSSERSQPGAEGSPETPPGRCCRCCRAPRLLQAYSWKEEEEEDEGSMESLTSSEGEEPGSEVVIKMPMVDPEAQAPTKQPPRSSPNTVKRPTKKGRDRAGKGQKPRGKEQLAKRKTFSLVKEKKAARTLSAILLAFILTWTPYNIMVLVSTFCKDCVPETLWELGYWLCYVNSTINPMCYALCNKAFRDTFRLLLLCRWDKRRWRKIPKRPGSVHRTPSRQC
Assay: mAChR M1 cell-based functional assay (calcium mobilization), PAM activity: increase in the EC20 acetylcholine response
Conditions: CHO-K1 cells expressing hM1; calcium flux (Fluo-4); potentiation of EC20 acetylcholine response
value kind: Emax (%)

Query string: Indicate its recorded Emax; the compound in question is `Cn1ccc(-c2ccc(Cc3cc(C(=O)NC4CCOCC4)nc(-c4ccn(C)n4)c3)cc2)n1`
Result string: 46

Query string: Indicate its recorded Emax; the compound in question is `Cc1c(Cc2ccc(-n3cccn3)cc2)cc(C(=O)NC2CCOCC2)nc1-c1ccn(C)n1`
Result string: 81

Query string: Indicate its recorded Emax; the compound in question is `Cc1c(Cc2ccc(-n3cccn3)cc2)cc(C(=O)NC[C@@H]2CCCO2)nc1-c1ccn(C)n1`
Result string: 77

P. Cn1cc(-c2ccc(Cc3cc(C(=O)NC4CCOCC4)nc(-c4ccn(C)n4)c3)cn2)cn1
Q. Cn1ccc(-c2ccc(Cc3cc(C(=O)N[C@H]4CCOC[C@@H]4O)nc(-n4cccn4)c3)cc2)n1
Query string: Sorting by Emax in descending order, would P or Q appear first? // respond with label for picked entry
Result string: Q
(Q: 78%, P: 53%)

Attribution: patent US11851406B2
